Test system: SN12C renal
Assay: NCI-60 one-dose screen, 48 h (100 = growth as untreated, 0 = no growth, -100 = all killed)
Details: 10 µM unless noted
Compounds without any hit were thinned out: in the full panel of roughly 83,000, 20% have a hit.
PARAMETER_MEASURED: growth (%)

[[record]]
compound = "COc1ccc(C(=O)N/N=C/c2ccc(O)cc2O)cc1Nc1ccnc(C(F)(F)F)c1"
readout_units = "%"
observed = 33.1

[[record]]
compound = "[Cu+].[NH-][C@H]1C[N-]C(=O)[C@H]([C@H]2CCN=C(N)N2)[N-]C(=O)/C(=C\\NC(N)=O)[N-]C(=O)[C@H](CNC(=O)C[C@@H](N)CCCN)[N-]C(=O)[C@H](CO)[N-]C1=O"
readout_units = "%"
observed = 103

[[record]]
compound = "Clc1nccc2c(-c3csc(-c4c[nH]c5ccc(Br)cc45)n3)c[nH]c12"
readout_units = "%"
observed = 54

[[record]]
compound = "COc1ccc(Cn2cc(C(=O)Nc3cccnc3Nc3ccccc3)nn2)cc1"
readout_units = "%"
observed = 86.5


Ref: PubChem BioAssay (NCI)
